- test target: F protein of human metapneumovirus strain JPS05-21 (type B2), on infectious virus (human metapneumovirus, strain JPS05-21 …)
- test method notes: cell-based or functional assay
readout kind: IC50, neutralizing activity (hMPV infection of LLC-MK2 cells) (µg/mL)

binder: EV046143 (antibody, human IgG1, kappa, V domains shown) VH: QVQLVQSGAEVQKPGSSVKVSCKTSGDTFNNYALSWVRQAPGQGPEWMGRIIPLVEMANYAQKFQGRVTITADKSTTTIYMELSSLRSEDTAMYYCARDGYQGGFPYFFDSWGQGTLVTVSS VL: EVVLTQSPGTLSLSPGERATLSCRASQSVSNYLAWYQQKPGQAPRLLISAASSRATGIPDRFGGSGSGADFTLTISRLEPEDFAVYYCQQYGFSPGTFGQGTKVEIRR
unit spec: µg/mL
test value: 0.27
--
binder: EV046136 (antibody, human IgG1, kappa, V domains shown) VH: QVQLVQSGAEMKKPGASVKVSCKASGYTFTDYFIHWVRQAPGQGLEWMGWVNPNSGATNYAQKFQGRVTMTGDTSLSAAYVDLSRLSSDDSAVYYCARDRGLGISSTRNDAFDIWGQGTTVTVSS VL: DIQLTQSPSSLSASVGDRVTITCQPSQGIRNFLNWYQQKPGKAPNLLIYDASNLETGVASRFSGSGSGTHFTLTISSLQPEDIATYFCQQYHSLPLTFGGGTKVEIKR
unit spec: µg/mL
test value: 0.46
